Tested Target: HLA-B*40:01
Assay Text: IEDB peptide-MHC binding, purified MHC/competitive/fluorescence; filed as Kd, often an IC50 or EC50 that approximates it; bounds were set here for any values at or beyond the usual limits of such assays
Measurement Conditions: source organism: Entamoeba histolytica HM-1:IMSS

- Monomer Sequence: "EVIRATYPS"
  Kd: "≥ 5 µM"

---

Tested Target: HLA-B*14:02
Assay Text: IEDB peptide-MHC binding, purified MHC/competitive/fluorescence; bounds were set here for any values at or beyond the usual limits of such assays
Measurement Conditions: source organism: Homo sapiens
# IC50 per entry

- Monomer Sequence: "RQSSGSSSSGF"
  Tested Target: "HLA-B*14:02"
  IC50: "≥ 20 µM"
- Monomer Sequence: "ELFARSSDPR"
  Tested Target: "HLA-B*14:02"
  IC50: "≥ 20 µM"
- Monomer Sequence: "LVTMGTGTFGR"
  Tested Target: "HLA-B*14:02"
  IC50: "≥ 20 µM"

The values you see were collected from the Immune Epitope Database (IEDB).
